The measured values listed here are drawn from patent US4554275A.

System: Carrageenin Edema
assay name: Carrageenin edema inhibitory action (rat hind paw swelling)
Type: in vivo, male rats (SLC-SD strain)
assay setup: po, 3 h, 400 mg/kg orally, one hour before 0.1 ml of 0.5% carrageenin into right hind paw, measured three hours later, vs control group, read-out: Carrageenin Edema Inhibitory Rate (%)
Using inhibition in vivo at 400 mg/kg as the sorting value, the categories are zone 1: < 30%; zone 2: ≥ 30% and < 50%; zone 3: ≥ 50%

compound	assigned class
Nc1nc(N)nc(-c2cc3ccccc3cc2Cl)n1	zone 3
Nc1nc(NC(=O)c2cccnc2)nc(-c2cc3ccccc3cc2Br)n1	zone 2
COc1cc2ccccc2cc1-c1nc(N)nc(N)n1	zone 3

Band for the recorded inhibition in vivo at 400 mg/kg of Nc1nc(NC(=O)c2cccnc2)nc(-c2ccc3ccccc3c2O)n1 ? zone 1

Into which category would you place Nc1nc(NC(=O)c2cccnc2)nc(-c2cc3ccccc3cc2F)n1 ? zone 3

Please classify: COc1ccc2ccccc2c1-c1nc(N)nc(N)n1 zone 2

Quick check: band for COc1ccc(-c2nc(N)nc(N)n2)c2ccccc12 zone 3

Hello team, could you let me know which band the following compound falls into: Nc1nc(N)nc(-c2ccc(Br)c3ccccc23)n1 zone 2

Hi, small favor: classify Nc1nc(NC(=O)c2cccnc2)nc(-c2ccc3ccccc3c2)n1 by its inhibition in vivo at 400 mg/kg when you get a moment. zone 1

Please classify: Nc1nc(N)nc(-c2ccc(Cl)c3ccccc23)n1 zone 2

Category of COc1ccc(-c2nc(N)nc(NC(=O)c3cccnc3)n2)c2ccccc12 , please. zone 2
